# Test system: HOP-62
# assay_remarks: NCI60 antitumor screening
# Format: cell-based, human
# cond: Homo sapiens; 10 μM single dose; HOP-62 (non-small cell lung cancer); read-out: growth inhibition percent (GI%)
Items are presented alongside their recorded inhibition at 10 µM.
endpoint_name: inhibition at 10 µM

> print(dat)
                            chemical.string  test.value
1  N#Cc1c(-c2ccc(F)cc2)nc(SCc2ccccc2)nc1N1CCN(c2ccccc2)CC1       < 10%
2  N#Cc1c(-c2ccc(F)cc2)nc(SCc2ccc([N+](=O)[O-])cc2)nc1N1CCN(c2ccccc2)CC1       < 10%
3  CN1CCN(c2nc(SCc3ccc([N+](=O)[O-])cc3)nc(-c3ccc(F)cc3)c2C#N)CC1       26.3%
